MEASURED_ON: Albumin (Homo sapiens, UniProt P02768)
Sequence (P02768 whole entry): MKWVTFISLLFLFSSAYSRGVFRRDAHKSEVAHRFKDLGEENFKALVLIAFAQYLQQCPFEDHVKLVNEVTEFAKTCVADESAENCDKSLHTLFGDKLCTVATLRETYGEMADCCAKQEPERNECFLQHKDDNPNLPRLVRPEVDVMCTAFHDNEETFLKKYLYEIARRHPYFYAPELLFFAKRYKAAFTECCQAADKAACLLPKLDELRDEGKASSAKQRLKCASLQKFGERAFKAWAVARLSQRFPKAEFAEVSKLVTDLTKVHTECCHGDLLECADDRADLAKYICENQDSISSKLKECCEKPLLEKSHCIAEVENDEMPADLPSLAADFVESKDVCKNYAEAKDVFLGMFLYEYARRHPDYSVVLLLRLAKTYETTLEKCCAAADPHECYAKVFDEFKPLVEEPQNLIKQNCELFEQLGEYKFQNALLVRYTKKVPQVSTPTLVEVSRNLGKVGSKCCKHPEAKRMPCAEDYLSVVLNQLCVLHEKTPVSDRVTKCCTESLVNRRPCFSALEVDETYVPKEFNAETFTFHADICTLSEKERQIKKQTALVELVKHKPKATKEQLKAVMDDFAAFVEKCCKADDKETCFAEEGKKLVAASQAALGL
PROCEDURE_SUMMARY: Binding affinity to human serum albumin
QUANTITY: pKd
Answers are plain numbers, as −log10 of the molar value.

Prompt: Suppose we examine the compound COCCOCCCSc1ccc(C(=O)Nc2ccc(C#N)cc2C(=O)O)cn1 ; what pKd value has been reported?
Completion: 6.15
